# targetSystem: T1, human IL-1RAcP on 293T/17-FR cells (human, UniProt Q9NPH3 21-570)
# T1 sequence (looked up): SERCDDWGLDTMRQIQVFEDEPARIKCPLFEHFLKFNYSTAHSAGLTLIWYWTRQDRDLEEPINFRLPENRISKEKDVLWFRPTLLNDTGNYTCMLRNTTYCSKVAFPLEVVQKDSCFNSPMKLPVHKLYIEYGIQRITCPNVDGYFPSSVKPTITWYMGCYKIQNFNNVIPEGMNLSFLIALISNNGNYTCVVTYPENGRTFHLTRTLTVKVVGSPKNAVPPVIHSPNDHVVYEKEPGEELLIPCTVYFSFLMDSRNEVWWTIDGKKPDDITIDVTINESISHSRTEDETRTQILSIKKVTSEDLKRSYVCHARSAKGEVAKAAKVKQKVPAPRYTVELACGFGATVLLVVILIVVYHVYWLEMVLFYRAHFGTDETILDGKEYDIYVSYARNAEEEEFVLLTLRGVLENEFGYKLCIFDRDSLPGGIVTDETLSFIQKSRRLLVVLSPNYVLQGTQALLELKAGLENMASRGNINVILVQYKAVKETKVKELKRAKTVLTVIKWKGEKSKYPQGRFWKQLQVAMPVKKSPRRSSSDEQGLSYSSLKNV
# assayProtocol: cell-based or functional assay
measurementName: primary supernatant functional assay (% inh.), NF-kB luciferase reporter (%)

{"columns": ["binder", "valueUnits", "readoutNumber"],
 "data": [
  ["P013.S.01.B.F06 (antibody, V domains shown, rabbit monoclonal antibody; also called P013.A.00045.E09) VH: QSVEESGGRLVTPGTPLTLTCTVSGIDLSSDAVGWVRQAPGKGLEYIGIIVSSGETFYASWARGRCTISKTSSTTVDLRITRLTTEDTATYFCARGGPGYSFDTEYAFDPWGPGTLVTVSS VL: AFEMTQTPASVEVAVGGTVTINCQASQSIGSWLSWYQQKVGQRPKLLISRASTLASGVPSRFKGSGSGTEYTLTISGVQSDDAATFYCQQGATTYDVDNVFGGGTEVVVR", "%", 75],
  ["P013.S.01.B.F04 (antibody, V domains shown, rabbit monoclonal antibody; also called P013.A.00133.A12) VH: LEQSGGGAEGGLVKPGGSLELCCKASGFSLSTSYWRCWVRQAPGKGLEWIGCIYAGSSDATYYANWVNGRFTLSRDIDQSTGCLQLNSLTAADTAMYYCASGVGFGYFNLWGQGTLVTVSS VL: ALVMTQTPSPVSAAVGGTVTINCQASEDIYSNLAWFQQKPGQPPKLLIYDASTLASGVPSRFSGSGSGTEFTLTISGLQSDDAATYYCLGVYTHISADNAFGGGTEVVVK", "%", 97],
  ["P013.S.02.B.F04 (antibody, V domains shown, rabbit monoclonal antibody; also called P013.A.00109.B02) VH: QEQLVESGGDLVKPEGSLTLTCTASGFSFSSNYWICWVRQAPGKGLEWIACIYTSTDTTYYPNWAKGRFTISKTSSTTVTLQMTSLTAADTATYFCARDLLVVTSFNLWGQGTLVTVSS VL: ALVMTQTPSPVSAAVGGTVTINCQASEDIYSNLAWFQQKPGQPPKLLIYGASTLASGVPSRFSGSGSGTEFTLTISGVQSDDAATYYCLGVCTDISADDLYNTFGGGTEVVVK", "%", 93]
]}
